Reported Porcine Atria IC25 values are given for each entry in this list.
System: Porcine Atria myofibrils
MEASUREMENT_DESCRIPTION: Myofibril ATPase assay (PK/LDH NADH-coupled), atria myofibrils
Format: biochemical
ASSAY_SETUP: Table 8
REPORTED_METRIC: Porcine Atria IC25 (nM)

> print(dat)
                                   molecule  unit.abbrev  value
1  Cc1nc([C@@H](C)NC(=O)CN2Cc3c(ccc(F)c3F)NC2=O)ncc1C#N (single isomer, unassigned)           nM    610
2  Cc1cccc2c1C1(CC1)N(CC(=O)N[C@H](C)c1ncc(C#N)nc1C)C(=O)N2           nM  20750
3  Cc1cnncc1[C@@H](C)NC(=O)CN1Cc2c(ccc(F)c2F)NC1=O           nM    580
4  O=C(CN1Cc2c(ccc(F)c2F)NC1=O)N[C@@H]1COCc2cc(F)ccc21           nM     20

---

Tested on: Porcine Atria myofibrils
MEASUREMENT_DESCRIPTION: Myofibril ATPase assay (PK/LDH NADH-coupled), atria myofibrils
Type: biochemical
ASSAY_SETUP: Table 7
REPORTED_METRIC: Porcine Atria IC25 (µM)

> print(dat)
                                    molecule         target.under.test   value
 1  N#Cc1ccc([C@@H](CO)NC(=O)CN2Cc3c(ccnc3C#N)NC2=O)c(F)c1  Porcine Atria myofibrils    0.38
 2  C[C@H](NC(=O)CN1Cc2c(F)cncc2NC1=O)c1ncc(F)cc1F  Porcine Atria myofibrils   25.37
 3  C[C@@H](NC(=O)CN1C(=O)Nc2ccc(C#N)nc2C12CC2)c1ccc(F)cc1F  Porcine Atria myofibrils    7.63
 4  O=C(CN1C(=O)Nc2cccnc2C12CC2)N[C@@H](CO)c1ccc(F)cc1F [Compound N44]  Porcine Atria myofibrils    1.18
 5  O=C(CN1Cc2c(ccnc2C(F)(F)F)NC1=O)N[C@@H]1COc2cc(F)cc(F)c21  Porcine Atria myofibrils    0.12
 6  C[C@@H](NC(=O)CN1Cc2c(F)cncc2NC1=O)c1ncc(F)cc1F  Porcine Atria myofibrils  100.00
 7  C[C@@H](NC(=O)CN1C(=O)Nc2cccnc2C12COC2)c1ncc(F)cc1F  Porcine Atria myofibrils  100.00
 8  C[C@H](NC(=O)[C@@H](C)N1Cc2nc(C#N)ccc2NC1=O)c1ccc(F)cc1F  Porcine Atria myofibrils  100.00
 9  C[C@H](NC(=O)[C@H](C)N1Cc2nc(F)ccc2NC1=O)c1ccccc1F  Porcine Atria myofibrils  100.00
10  COc1ccc2c(n1)C1(CC1)N(CC(=O)N[C@H](C)c1ncc(F)cc1F)C(=O)N2  Porcine Atria myofibrils  100.00
11  C[C@@H](NC(=O)CN1C(=O)Nc2ccc(C#N)nc2C12CC2)c1ncc(F)cc1F  Porcine Atria myofibrils    1.16
12  O=C(CN1Cc2c(ccnc2Cl)NC1=O)N[C@@H](c1ccc(F)cc1F)C(F)(F)F  Porcine Atria myofibrils  100.00
13  C[C@H](NC(=O)CN1Cc2cnccc2NC1=O)c1ccc(C#N)cc1F  Porcine Atria myofibrils    4.36
14  CC(C)Oc1nccc2c1CN(CC(=O)N[C@@H](C)c1ccc(F)cc1F)C(=O)N2  Porcine Atria myofibrils  100.00
15  O=C(CN1Cc2cnccc2NC1=O)N[C@@H]1COc2cc(F)cc(F)c21  Porcine Atria myofibrils    0.82
16  COc1ccc2c(n1)CN(CC(=O)N[C@@H](C)c1ccc(F)cc1F)C(=O)N2  Porcine Atria myofibrils    0.57
17  O=C(CN1Cc2cnccc2NC1=O)N[C@H]1CCCc2cc(F)cc(F)c21  Porcine Atria myofibrils    1.54

---

Test system: Rabbit Skeletal myofibrils (rabbit psoas muscle)
MEASUREMENT_DESCRIPTION: Myofibril ATPase assay (PK/LDH NADH-coupled), skeletal myofibrils
Assay type: biochemical
ASSAY_SETUP: Table 8
Assign class by Rabbit Psoas IC25: not lower than 3 µM means MET; lower than 3 µM means NOT MET.

> print(dat)
                                   molecule      cat
1  C[C@H](NC(=O)CN1Cc2c(ccc(F)c2F)NC1=O)c1nc(-c2ccc(F)cn2)no1      MET
2  N#Cc1c(F)ccc2c1CN(CC(=O)N[C@H]1COc3cc(F)cc(F)c31)C(=O)N2  NOT MET
3  Cc1ccnnc1[C@@H](C)NC(=O)CN1Cc2c(ccc(F)c2F)NC1=O      MET
4  C[C@@H](NC(=O)CN1Cc2c(C#N)cccc2NC1=O)c1ncc(C#N)cc1F  NOT MET
5  Cc1ncc(C#N)nc1[C@H](C)NC(=O)CN1Cc2c(ccc(F)c2F)NC1=O      MET
6  C[C@@H](NC(=O)CN1Cc2cc(C#N)ccc2NC1=O)c1ncc(C#N)cc1F      MET
7  Cc1cc(C(C)NC(=O)CN2Cc3c(ccc(F)c3F)NC2=O)ncc1F (single isomer, unassigned)      MET
8  C[C@@H](NC(=O)[C@@H](CC1CC1)N1Cc2c(ccc(F)c2F)NC1=O)c1ccc(F)cc1F      MET

---

Tested on: Porcine Atria myofibrils
MEASUREMENT_DESCRIPTION: Myofibril ATPase assay (PK/LDH NADH-coupled), atria myofibrils
Type: biochemical
ASSAY_SETUP: Table 8
Experimental: Myofibril ATPase Assay Procedure: BSA, ATP, NADH, PEP, and DTT solutions were thawed at room temperature, then transferred to ice. […] 25 μL of Buffer A was dispensed into the wells, followed by 25 μL of Buffer B. The wells were measured for absorbance at 340 nm, using a kinetic protocol in which the wells are read every 1.5-2 min for 75 min. […] In addition to the fit parameters, the EC25% is calculated, relative to the 100% normalized value. […]
REPORTED_METRIC: Porcine Atria IC25

> print(dat)
                                    molecule     reported.metric      value
 1  Cc1cc(C(C)NC(=O)CN2Cc3c(ccc(F)c3F)NC2=O)ncc1F (single isomer, unassigned)  Porcine Atria IC25    0.61 µM
 2  C[C@@H](NC(=O)CN1Cc2c(ccc(F)c2C#N)NC1=O)c1ccc(C#N)cn1  Porcine Atria IC25  100.00 µM
 3  Cc1ncc(F)c([C@H](C)NC(=O)CN2Cc3c(ccc(F)c3F)NC2=O)n1  Porcine Atria IC25  100.00 µM
 4  O=C(CN1Cc2c(ccc(F)c2F)NC1=O)NC1COc2ccc(F)cc2C1 (single isomer, unassigned)  Porcine Atria IC25    0.19 µM
 5  C[C@H](NC(=O)CN1C(=O)Nc2ccc(C#N)cc2C12CC2)c1ncc(F)cc1F  Porcine Atria IC25    0.98 µM
 6  N#Cc1cc(F)c2c(c1)OC[C@@H]2NC(=O)CN1C(=O)Nc2ccc(F)c(F)c2C12CC2  Porcine Atria IC25    0.23 µM
 7  C[C@@H]1c2ccccc2NC(=O)N1CC(=O)N[C@@H](CO)c1ncc(F)cc1F  Porcine Atria IC25   17.36 µM
 8  Cc1cc(F)ccc1[C@@H](C)NC(=O)CN1Cc2cc(F)ccc2NC1=O  Porcine Atria IC25   28.57 µM
 9  CNC(=O)N1CC2(C1)c1cc(F)ccc1NC(=O)N2CC(=O)N[C@H](C)c1ncc(C#N)cc1F  Porcine Atria IC25  100.00 µM
10  C[C@@H](NC(=O)[C@@H](CC1CC1)N1Cc2c(ccc(F)c2F)NC1=O)c1ccc(F)cc1F  Porcine Atria IC25    6.51 µM
11  Cc1cc(F)c2c(c1)NC(=O)N(CC(=O)N[C@H](C)c1ccc(C#N)cc1F)C2  Porcine Atria IC25    0.88 µM
12  C[C@H](NC(=O)CN1Cc2cc(F)ccc2NC1=O)c1ccc(C#N)cn1  Porcine Atria IC25    2.94 µM
13  C[C@@H](NC(=O)CN1Cc2cc(F)ccc2NC1=O)c1ccc(C#N)cc1  Porcine Atria IC25    5.48 µM
14  C[C@H](NC(=O)[C@@H](Cc1ccccc1)N1Cc2cc(F)ccc2NC1=O)c1ccc(F)cc1F  Porcine Atria IC25   53.57 µM
15  C[C@H](NC(=O)CN1C(=O)Nc2ccc(F)cc2C12CC2)c1ccc(C#N)cn1  Porcine Atria IC25    1.53 µM
16  O=C(CN1Cc2c(ccc(F)c2F)NC1=O)N[C@H](CO)c1ncc(F)cc1F  Porcine Atria IC25  100.00 µM

---

System: Rabbit Skeletal myofibrils (rabbit psoas muscle)
MEASUREMENT_DESCRIPTION: Myofibril ATPase assay (PK/LDH NADH-coupled), skeletal myofibrils
Type: biochemical
ASSAY_SETUP: Table 8
REPORTED_METRIC: Rabbit Psoas IC25 (µM)

> print(dat)
                                   molecule                         target.under.test  unit.abbrev  value
1  C[C@@H](NC(=O)CN1Cc2cc(F)ccc2NC1=O)c1ccc(C#N)cc1F [Compound B205]  Rabbit Skeletal myofibrils (rabbit psoas muscle)           µM  6.054
2  CC(C)C[C@H](C(=O)N[C@@H](C)c1ccc(F)cc1F)N1Cc2cc(F)ccc2NC1=O [Compound B208]  Rabbit Skeletal myofibrils (rabbit psoas muscle)           µM    100
3  Cc1ncc(F)c([C@@H](C)NC(=O)CN2Cc3c(ccc(F)c3F)NC2=O)n1 [Compound B346]  Rabbit Skeletal myofibrils (rabbit psoas muscle)           µM  59.27
4  C[C@@H](NC(=O)CN1Cc2c(ccc(F)c2F)NC1=O)c1nnc2c(Cl)cc(C(F)(F)F)cn12 [Compound B97]  Rabbit Skeletal myofibrils (rabbit psoas muscle)           µM  8.892
